Here the recorded growth is given for each entry.
Test system: SK-OV-3 ovarian
Assay: NCI-60 one-dose screen, 48 h (100 = growth as untreated, 0 = no growth, -100 = all killed)
Settings: 10 µM unless noted
Protocol: Growth inhibition of the SK-OV-3 human tumor cell line is measured as a screen for anti-cancer activity. Cells are grown in 96 well plates and exposed to the test compound for 48 hours. Compounds are tested at a single concentration, which is 10^-5 M for most compounds. The reported endpoint is percent growth (GI% or GIPRCNT), where numbers from 0 - 100% represent growth inhibition, and numbers from -100% - 0 represent cell death. For example, a value of 40 represents 60% growth inhibition. […]
Compounds without any hit were thinned out: in the full panel of roughly 83,000, 20% have a hit.
# value in %; strip the unit string

For orientation, consider the following solved cases.
> print(dat)
                                   compound  assay.result
1    COC1=C(OC)C(=O)C(CCCCCCCCCCO)=C(C)C1=O          82.7
2  C#CCOC(=O)C(N)CSSCC(N)C(=O)O (stereo not given)           109
3  CCN1CCN(c2nc(NNC(=O)c3ccc(OC)cc3)nc(N3CCN(C(c4ccccc4)c4ccccc4)CC3)n2)CC1          48.3

Per the reported SK-OV-3 ovarian data, CCCCCN(CCCCC)CC(O)c1c(Cl)ccc2ccccc12 (stereo not given) has growth of 93.6

Per the reported SK-OV-3 ovarian data, CCN1C(=O)N(CC)C2C1NN=c1s/c(=C3\C(=O)N(C)c4ccccc43)c(=O)n12 (stereo not given) has growth of 72.5

Per the reported SK-OV-3 ovarian data, `O=C1/C(=C/c2ccccc2)COc2ccc(O)cc21` has growth of 124

Per the reported SK-OV-3 ovarian data, `O=C1/C(=C/c2cccc([N+](=O)[O-])c2)COc2ccc(O)c(O)c21` has growth of 68.9

Per the reported SK-OV-3 ovarian data, `C#CCOc1cc(/C=N/Nc2nc(-c3ccc(OC)cc3)cs2)ccc1O` has growth of 99.4

Per the reported SK-OV-3 ovarian data, CCN1C(=O)N(CC)C2C1NC(=S)N2/N=C/C=C/c1ccccc1 (stereo not given) has growth of 20.4

Per the reported SK-OV-3 ovarian data, `COc1ccc2c(c1)C(c1c[nH]c3ccccc13)(c1c[nH]c3ccccc13)CCO2` has growth of 23.9

---

test system: SK-MEL-5 melanoma; test: NCI-60 one-dose screen, 48 h; conditions: 10 µM unless noted
About 83,000 compounds went through this panel and 20% of them were active in at least one assay; those are over-represented in the sample as a whole. Active and inactive are the calls of the source. Rule for the calls: active = growth percent below 10; inactive = the rest.
Choose one outcome from this list and give only that: active, inactive

Study these solved cases before continuing.
> print(dat)
                                   compound  target.or.test.system  category
1    CNc1nc2ncc(-c3c(C)noc3C)cc2n1Cc1ccccc1      SK-MEL-5 melanoma  inactive
2  CC1(C)C2=C(C(=O)N1Cc1ccccc1)C(c1ccco1)N(C(=O)C1CCC1)CCN2 (stereo not given)      SK-MEL-5 melanoma  inactive
3          Nc1nc(=O)n([C@H]2CC=C(CO)O2)cc1F      SK-MEL-5 melanoma  inactive
4          Cc1cccc(CN(Nc2ccccc2)c2ccccc2)n1      SK-MEL-5 melanoma  inactive
5  C#Cc1cccc(Nc2nc(Cl)nc3cc(NC(=O)CCl)ccc23)c1      SK-MEL-5 melanoma    active

Per the records of this test, what outcome belongs to C#CCOc1ccc(C2=NN(C)C3N=C(Cl)c4ncn(C)c4N23)cc1OCC#C (stereo not given) ? inactive

Per the records of this test, what outcome belongs to `COc1cc(C)cc(-c2c(-c3cc(N4CC(O)C4)nc(-c4cccnc4)n3)cnn2C)c1` ? inactive

Per the records of this test, what outcome belongs to `COC(=O)CCc1c(/C=C2\N=C(c3ccc[nH]3)C=C2OC)[nH]c(C)c1C(=O)OCc1ccccc1` ? active

Per the records of this test, what outcome belongs to Nc1nc(N)c2c(n1)NC(c1ccc3c(c1)OCO3)CC(c1cccc(Nc3ccncc3)c1)=N2 (stereo not given) ? inactive

Per the records of this test, what outcome belongs to `O=C(CN1C(=O)c2ccccc2S1(=O)=O)Nc1nc(-c2cc3ccccc3oc2=O)cs1` ? inactive

---

Here the recorded growth is given for each entry.
Test system: HS 578T breast
Assay: NCI-60 one-dose screen, 48 h (100 = growth as untreated, 0 = no growth, -100 = all killed)
Settings: 10 µM unless noted
Experimental: Growth inhibition of the HS 578T human tumor cell line is measured as a screen for anti-cancer activity. Cells are grown in 96 well plates and exposed to the test compound for 48 hours. Compounds are tested at a single concentration, which is 10^-5 M for most compounds. The reported endpoint is percent growth (GI% or GIPRCNT), where numbers from 0 - 100% represent growth inhibition, and numbers from -100% - 0 represent cell death. For example, a value of 40 represents 60% growth inhibition. […]
Compounds without any hit were thinned out: in the full panel of roughly 83,000, 20% have a hit.
# value in %; strip the unit string

For orientation, consider the following solved cases.
> print(dat)
                                   molecule  reported.endpoint  assay.result
1  CC1=C([Se]CC(OC(=O)[C@@H](CO)NC(=O)OC(C)(C)C)C(=O)NCCCCCC(=O)OCc2ccccc2)C(=O)c2ccccc2C1=O (stereo not given in full)             growth          2.05
2  Clc1ccc2c(NCCCn3cnc4c(N5CCCC5)nc(Cl)nc43)ccnc2c1             growth           104
3     CN(C)C(=O)OCc1ccc2c(Cl)cc(Cl)c(O)c2n1             growth          71.8
4  CC(C)n1nc(-c2ccc3oc(N)nc3c2)c2c(N)ncnc21             growth         -35.8

For `Nc1n[nH]c2cccc(C#Cc3cccc(C(=O)Nc4ccc(Cl)c(C(F)(F)F)c4)c3)c12` the molecule record lists growth as 53.3

---

tested on: OVCAR-8 ovarian; experiment: NCI-60 one-dose screen, 48 h (100 = growth as untreated, 0 = no growth, -100 = all killed); conditions: 10 µM unless noted
This is part of a sample that, as a whole, favours compounds with a hit. Of some 83,000 tested, about 20% had one in any assay.
REPORTED ENDPOINT: growth (%)
# value in %; strip the unit string

For orientation, consider the following solved cases.
> print(dat)
                                   molecule  assay.result
1  COc1ccc(/C=C/C(=O)c2ccc(-n3cc(CN4CCN(c5cc6c(cc5F)c(=O)c(C(=O)O)cn6C5CC5)CC4)nn3)cc2)cc1          67.4
2   CN(CCNc1ccc(C(=N)N)cc1)c1ccc(C(=N)N)cc1          80.8

Per the reported OVCAR-8 ovarian data, `O=C(Nc1ncc(Cc2ccc(Cl)cc2)s1)c1ccc2c(c1)OCCO2` has growth of 21.7

Per the reported OVCAR-8 ovarian data, `COc1nc2ccccc2cc1/C=[N+](\[O-])c1ccccc1` has growth of 37.3

Per the reported OVCAR-8 ovarian data, `COc1cc2ncnc(Nc3ccc(S(=O)(=O)Nc4cc(C)on4)cc3)c2cc1OCCCN1CCOCC1` has growth of 98.2

Per the reported OVCAR-8 ovarian data, O=C(/C=C/C12c3ccccc3C(c3ccccc31)C1C(=O)NC(=O)C12)c1cccs1 (centres undefined) has growth of 18.4

Per the reported OVCAR-8 ovarian data, CN1C(=O)N(C)C2C1NN=c1s/c(=C\c3ccccc3F)c(=O)n12 (centres undefined) has growth of 10.1

Per the reported OVCAR-8 ovarian data, `Cn1cc(-c2csc(-c3cn(C)c4ccc(F)cc34)n2)c2cnccc21` has growth of 5.3

Per the reported OVCAR-8 ovarian data, `COc1ccc(NC(=O)CSc2oc(-c3ccccc3)nc2S(=O)(=O)c2ccc(Cl)cc2)c(OC)c1` has growth of 34.3

---

system: MCF7 breast; assay: NCI-60 one-dose screen, 48 h (100 = growth as untreated, 0 = no growth, -100 = all killed); details: 10 µM unless noted
About 83,000 compounds went through this panel and 20% of them were active in at least one assay; those are over-represented in the sample as a whole.
Here the recorded growth is given for each entry.
# value in %; strip the unit string

> print(dat)
                                    compound  assay.result
 1  COC(=O)[C@H](C)NC(=O)[C@@H]1CCCN1C(=O)CNC(=O)[C@H](C)N           110
 2  O=C(COc1ccc(/C=C2\Oc3ccccc3C2=O)cc1)Nc1nccs1          75.6
 3          COc1cccc(/C=C2\CCc3ccccc3C2=O)c1          27.5
 4  O=C1Nc2ccccc2/C1=C/c1cccn1CCCCCCn1c2ccccc2c(=O)c2ccccc21          1.03
 5  O=C1c2c(c3c4cc(F)ccc4oc3c3[nH]c4ccccc4c23)C(=O)N1O          17.3
 6  COc1cccc(/C=C/C(=O)/C=C(/C=C/c2cccc(OC)c2OC)OB(F)F)c1OC          26.8
 7  C#CCOc1ccc(C2=NN(C)C3N=C(Cl)c4ncn(C)c4N23)cc1OCC#C (stereo unspecified)          98.5
 8  O=C1c2c(c3c4cccnc4[nH]c3c3ccc4ccccc4c23)C(=O)N1O          20.8
 9  COc1ccc(C2=NN3C(C2)c2cc(Br)ccc2OC3c2ccncc2)cc1 (stereo unspecified)          70.7
10    COc1ccc(-c2ccc(-c3ccc(C(=N)N)o3)o2)cc1          10.4

For `CN(C)C(=O)OCc1ccc2c(Cl)cc(Cl)c(O)c2n1` the compound record lists growth as 32.4

For `Oc1ccc(Cc2ccc(O)c3ncccc23)c2cccnc12` the compound record lists growth as 3.18

For `COc1ccc(N2C(=O)/C(=C/C(Cl)=C/c3ccc([N+](=O)[O-])cc3)SC2=S)cc1` the compound record lists growth as 10.4

Where do these numbers come from? They come from PubChem BioAssay (NCI).
